molecular target: Ba/F3-TEL-EGFR-L858R-C797S (Homo sapiens, UniProt P00533, C797S/L858R, cells depend on it); construct: fused on or other part: N-terminal TEL (ETV6) oligomerising part fused to the EGFR intracellular/kinase part; P41212 (Transcription factor ETV6); test: CellTiter-Glo proliferation, Ba/F3-TEL-EGFR-L858R-C797S; assay type: cell-based; settings: 72 hours, read-out: Ba/F3-TEL-EGFR-L858R-C797S IC50/nM
Sequence (P00533 whole entry C797S/L858R, the tested form may be a part): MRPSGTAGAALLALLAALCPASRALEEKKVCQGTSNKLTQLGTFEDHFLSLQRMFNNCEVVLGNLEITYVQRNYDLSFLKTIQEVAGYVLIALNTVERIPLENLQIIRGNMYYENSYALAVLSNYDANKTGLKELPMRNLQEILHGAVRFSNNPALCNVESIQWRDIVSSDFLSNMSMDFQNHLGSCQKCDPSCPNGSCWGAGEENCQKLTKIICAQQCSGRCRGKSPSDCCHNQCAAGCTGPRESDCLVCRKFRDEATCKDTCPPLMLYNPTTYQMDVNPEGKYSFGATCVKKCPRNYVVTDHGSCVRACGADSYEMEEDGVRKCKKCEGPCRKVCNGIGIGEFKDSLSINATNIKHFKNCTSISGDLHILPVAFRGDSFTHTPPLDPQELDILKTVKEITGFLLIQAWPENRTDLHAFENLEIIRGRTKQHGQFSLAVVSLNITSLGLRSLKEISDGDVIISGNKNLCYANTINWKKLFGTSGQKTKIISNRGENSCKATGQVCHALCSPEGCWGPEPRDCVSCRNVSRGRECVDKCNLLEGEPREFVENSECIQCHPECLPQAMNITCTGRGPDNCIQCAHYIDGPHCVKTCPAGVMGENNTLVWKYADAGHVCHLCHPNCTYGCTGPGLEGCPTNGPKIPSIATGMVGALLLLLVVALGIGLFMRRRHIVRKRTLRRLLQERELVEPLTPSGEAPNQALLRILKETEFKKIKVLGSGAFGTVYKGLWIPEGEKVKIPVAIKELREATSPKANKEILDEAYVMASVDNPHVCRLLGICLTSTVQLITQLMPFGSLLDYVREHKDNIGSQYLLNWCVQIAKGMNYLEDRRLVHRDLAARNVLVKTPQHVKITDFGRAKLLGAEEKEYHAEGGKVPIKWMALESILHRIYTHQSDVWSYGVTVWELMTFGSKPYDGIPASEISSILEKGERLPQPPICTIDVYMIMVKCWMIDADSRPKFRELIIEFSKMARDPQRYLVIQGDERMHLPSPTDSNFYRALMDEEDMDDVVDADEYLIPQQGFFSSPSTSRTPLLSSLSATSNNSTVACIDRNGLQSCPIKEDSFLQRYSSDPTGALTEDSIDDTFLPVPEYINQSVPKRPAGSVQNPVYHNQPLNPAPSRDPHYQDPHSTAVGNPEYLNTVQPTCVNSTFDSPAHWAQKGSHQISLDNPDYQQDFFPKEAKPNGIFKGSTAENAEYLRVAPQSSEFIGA
GI50 reference
Returns: string containing the numeric result and its unit.

• CC(C)c1ccc(N2CC(CS(C)(=O)=O)C2)c2cnc(Nc3ccnc(-c4cnn(S(=O)(=O)C5CC5)c4)n3)cc12 = 3.1 nM
• CC(C)c1ccc(N2C[C@H](N(C)S(C)(=O)=O)[C@H]2C)c2cnc(Nc3ccnc(-c4cnn(S(=O)(=O)C5CC5)c4)n3)cc12 = 4.3 nM
• COC1CCN(c2nccc(Nc3cc4c(C(C)C)ccc(N5CC(NS(=O)(=O)C6COC6)C5)c4cn3)n2)CC1F (stereo not shown) = 33 nM

Please look at this molecule and report its GI50: `CCCS(=O)(=O)N(C)[C@H]1CN(c2ccc(C(C)C)c3cc(Nc4ccnc(-c5cnn(S(=O)(=O)C6CC6)c5)n4)ncc23)[C@@H]1C` 5.9 nM

Please look at this molecule and report its GI50: CC(C)c1ccc(N2CC(N(C)S(C)(=O)=O)C2)c2cnc(Nc3ccnc(N4CC[C@@H](O)[C@@H](F)C4)n3)cc12 [Compound P39a] 14 nM

Please look at this molecule and report its GI50: `COCCS(=O)(=O)n1cc(-c2nccc(Nc3cc4c(C(C)C)ccc(N5C[C@H](CS(C)(=O)=O)[C@H]5C)c4cn3)n2)cn1` 1.8 nM

Please look at this molecule and report its GI50: COC1CCN(c2nccc(Nc3cc4c(C(C)C)ccc(N5CC(NS(C)(=O)=O)C5)c4cn3)n2)CC1F (stereo not shown) 13 nM

----------
target: EGFR (L858R) (Homo sapiens, UniProt P00533, L858R); assay: MSA (Mobility Shift Assay) kinase activity, EGFR-L858R; type: biochemical
Sequence (P00533 25-1210 L858R): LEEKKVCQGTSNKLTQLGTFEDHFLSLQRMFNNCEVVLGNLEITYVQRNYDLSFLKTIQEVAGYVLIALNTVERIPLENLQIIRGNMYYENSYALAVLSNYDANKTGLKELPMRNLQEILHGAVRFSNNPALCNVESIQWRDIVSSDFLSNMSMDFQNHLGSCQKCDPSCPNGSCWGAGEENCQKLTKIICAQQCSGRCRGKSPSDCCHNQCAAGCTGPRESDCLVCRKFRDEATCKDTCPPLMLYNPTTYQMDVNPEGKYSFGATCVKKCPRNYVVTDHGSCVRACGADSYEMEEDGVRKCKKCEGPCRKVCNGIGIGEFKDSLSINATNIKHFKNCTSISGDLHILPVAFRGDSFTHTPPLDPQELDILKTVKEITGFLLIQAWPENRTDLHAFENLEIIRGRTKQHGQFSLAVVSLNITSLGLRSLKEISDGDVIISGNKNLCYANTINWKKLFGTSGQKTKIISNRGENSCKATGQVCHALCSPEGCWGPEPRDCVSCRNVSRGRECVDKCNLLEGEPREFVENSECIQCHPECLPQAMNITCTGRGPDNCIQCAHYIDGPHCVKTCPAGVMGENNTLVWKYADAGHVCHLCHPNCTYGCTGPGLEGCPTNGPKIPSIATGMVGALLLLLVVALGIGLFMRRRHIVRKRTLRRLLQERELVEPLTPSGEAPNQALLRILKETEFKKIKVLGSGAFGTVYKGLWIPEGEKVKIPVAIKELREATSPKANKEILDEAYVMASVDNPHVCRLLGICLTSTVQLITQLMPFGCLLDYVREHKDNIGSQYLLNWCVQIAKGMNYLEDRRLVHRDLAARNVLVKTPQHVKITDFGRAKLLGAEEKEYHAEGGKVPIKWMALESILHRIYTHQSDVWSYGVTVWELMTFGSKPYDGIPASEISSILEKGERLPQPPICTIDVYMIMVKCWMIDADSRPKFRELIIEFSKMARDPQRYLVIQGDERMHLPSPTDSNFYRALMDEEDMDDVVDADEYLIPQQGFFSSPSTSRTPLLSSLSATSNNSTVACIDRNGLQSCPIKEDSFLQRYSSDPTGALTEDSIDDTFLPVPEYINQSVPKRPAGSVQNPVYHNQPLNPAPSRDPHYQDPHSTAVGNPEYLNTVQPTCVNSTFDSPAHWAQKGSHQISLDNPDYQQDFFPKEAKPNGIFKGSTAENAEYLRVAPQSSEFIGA
Classes are defined on IC50 with ranges class A: < 3 nM; class B: ≥ 3 nM and < 8 nM; class C: ≥ 8 nM

- CC(C)c1ccc(N2CC(CS(C)(=O)=O)C2)c2cnc(Nc3ccnc(-c4cnn(S(=O)(=O)N(C)C)c4)n3)cc12: class A
- COc1cccc(-c2nccc(Nc3cc4c(C(C)C)ccc(N5CC(CS(C)(=O)=O)C5)c4cn3)n2)n1: class C
- CC(C)c1ccc(N2CC3(CC(S(C)(=O)=O)C3)C2)c2cnc(Nc3ccnc(N4CCC(O)C(F)C4)n3)cc12 (centres unmarked) [Compound P2]: class C
- CC(C)c1ccc(N2CC(CC(N)=O)C2)c2cnc(Nc3ccnc(-c4cnn(S(=O)(=O)C5CC5)c4)n3)cc12: class A
- CC(C)c1ccc(N2CC(NS(C)(=O)=O)C2)c2cnc(Nc3ccnc(N4CCC(O)C(C)(F)C4)n3)cc12 (centres unmarked) [Compound P45]: class B
- CC(C)c1ccc(N2CC(CP(C)(C)=O)C2)c2cnc(Nc3ccnc(N4CCC(O)C(F)C4)n3)cc12 (centres unmarked): class C
- CC(C)n1c(=O)cc(N2CC(CS(C)(=O)=O)C2)c2cnc(Nc3ccnc(-c4cnn(S(=O)(=O)C5CC5)c4)n3)cc21: class B
- CC(C)c1cc(C(F)(F)F)c(N2CC3(CC(CS(C)(=O)=O)C3)C2)c2cnc(Nc3ccnc(N4CCC(O)C(F)C4)n3)cc12 (centres unmarked): class C
- CC(C)n1c(=O)nc(N2CC(CS(C)(=O)=O)C2)c2cnc(Nc3ccnc(N4CCC(O)C(F)C4)n3)cc21 (centres unmarked): class C
- CC(C)c1ccc(N2CC(NS(C)(=O)=O)C2)c2cnc(Nc3ccnc(N4CCC(O)CC4)c3)nc12: class C

Quick check: band for `CC(C)c1ccc(N2CC(CS(C)(=O)=O)C2)c2cnc(Nc3ccnc(-c4cnn(S(=O)(=O)C5(C)CC5)c4)n3)cc12` class A

Quick check: band for `CC(C)c1ccc(N2C[C@H](CS(C)(=O)=O)[C@H]2C)c2cnc(Nc3ccnc(-c4cnn(S(=O)(=O)C5CC5)c4)n3)cc12` class A

----------
Tested on: Ba/F3-FL-EGFR-del19-C797S
Experiment: CellTiter-Glo proliferation, Ba/F3-FL-EGFR-del19-C797S
Format: cell-based
Conditions: 72 h, proliferation, 72 hours, CellTiter-Glo; read-out: Ba/F3-FL-EGFR-del19-C797S IC50/nM
Experimental: Promega CellTiter-Glo reagent was used to detect the effects of small molecule inhibitors on the proliferation of five Ba/F3 cell lines (Ba/F3-FL-EGFR, Ba/F3-FL-EGFR-L858R, Ba/F3-FL-EGFR-L858R-T790M-C797S, Ba/F3-TEL-EGFR-L858R-C797S and Ba/F3-FL-EGFR-del19-C797S). The cell lines were cultured in an incubator at 37° C. and 5% CO2. Cells were passaged regularly and cells in the logarithmic phase were used for plating. […] Cell viability was detected by CellTiter-Glo luminescence assay. […]
value_kind: IC50 (nM)
Write it as a number; the unit nM goes unstated.

Some solved cases for reference:
- CCCS(=O)(=O)N[C@H]1CN(c2ccc(C(C)C)c3cc(Nc4ccnc(N5CCC(OC)C(F)C5)n4)ncc23)[C@@H]1C (stereo partly drawn) [Compound P32]: 123
- CC(C)c1ccc(N2CC(CS(C)(=O)=O)C2)c2cnc(Nc3ccnc(-c4cnn(S(=O)(=O)C5(C)CC5)c4)n3)cc12 [Compound H18]: 69
- CO[C@H]1CCN(c2nccc(Nc3cc4c(C(C)C)ccc(N5C[C@H](N(C)S(C)(=O)=O)[C@H]5C)c4cn3)n2)C[C@H]1F [Compound P40b]: 81
- CC(C)c1ccc(N2CC(NS(C)(=O)=O)C2)c2cnc(Nc3ccnc(N4CCC(C)(O)C(F)C4)n3)cc12 (stereo not drawn) [Compound P51]: 181

Please look at this compound and report its IC50: CCCS(=O)(=O)N(C)[C@H]1CN(c2ccc(C(C)C)c3cc(Nc4ccnc(-c5cnn(S(=O)(=O)C6CC6)c5)n4)ncc23)[C@@H]1C [Compound H33] 7.1

Please look at this compound and report its IC50: CC(C)OCCS(=O)(=O)n1cc(-c2nccc(Nc3cc4c(C(C)C)ccc(N5C[C@H](CS(C)(=O)=O)[C@H]5C)c4cn3)n2)cn1 [Compound H32] 340

----------
GI50 reference
biological target: Ba/F3-FL-EGFR-L858R (Homo sapiens, UniProt P00533, L858R, cells depend on it); test: CellTiter-Glo proliferation, Ba/F3-FL-EGFR-L858R; assay type: cell-based; settings: 72 hours, read-out: Ba/F3-FL-EGFR-L858R IC50/nM
Sequence (P00533 whole entry L858R): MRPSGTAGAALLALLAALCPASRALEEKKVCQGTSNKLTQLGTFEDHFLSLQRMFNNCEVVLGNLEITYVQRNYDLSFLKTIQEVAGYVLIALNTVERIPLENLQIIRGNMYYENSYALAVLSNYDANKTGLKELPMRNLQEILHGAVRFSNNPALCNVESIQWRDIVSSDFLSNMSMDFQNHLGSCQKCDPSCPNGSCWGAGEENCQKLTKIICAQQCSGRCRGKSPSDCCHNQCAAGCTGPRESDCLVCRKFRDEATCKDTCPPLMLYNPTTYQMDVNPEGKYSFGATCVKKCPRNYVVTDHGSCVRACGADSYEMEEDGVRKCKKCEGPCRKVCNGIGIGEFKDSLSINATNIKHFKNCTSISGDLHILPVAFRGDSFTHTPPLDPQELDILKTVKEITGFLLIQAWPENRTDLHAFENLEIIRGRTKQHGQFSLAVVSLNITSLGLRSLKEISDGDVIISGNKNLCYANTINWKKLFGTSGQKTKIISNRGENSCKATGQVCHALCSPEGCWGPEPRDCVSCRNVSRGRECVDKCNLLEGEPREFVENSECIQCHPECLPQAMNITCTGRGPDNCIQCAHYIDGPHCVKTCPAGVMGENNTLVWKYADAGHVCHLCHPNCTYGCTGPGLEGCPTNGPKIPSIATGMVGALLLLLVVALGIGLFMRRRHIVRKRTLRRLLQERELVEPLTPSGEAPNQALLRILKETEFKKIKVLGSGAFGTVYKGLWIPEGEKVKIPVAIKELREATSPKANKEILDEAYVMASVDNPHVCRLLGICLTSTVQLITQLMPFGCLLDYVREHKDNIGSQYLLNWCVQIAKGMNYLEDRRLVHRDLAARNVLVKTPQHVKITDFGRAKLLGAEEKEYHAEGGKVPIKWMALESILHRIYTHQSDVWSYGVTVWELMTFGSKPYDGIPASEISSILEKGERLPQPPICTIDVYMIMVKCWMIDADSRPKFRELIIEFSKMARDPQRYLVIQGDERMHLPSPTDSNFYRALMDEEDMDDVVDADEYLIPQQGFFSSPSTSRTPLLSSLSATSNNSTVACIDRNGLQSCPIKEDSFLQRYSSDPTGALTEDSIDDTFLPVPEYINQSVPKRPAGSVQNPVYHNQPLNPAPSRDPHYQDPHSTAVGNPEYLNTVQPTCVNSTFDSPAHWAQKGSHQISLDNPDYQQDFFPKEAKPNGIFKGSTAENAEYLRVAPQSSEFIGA
Write it as a number; the unit nM goes unstated.

Some solved cases for reference:
• CC(C)c1ccc(N2C[C@H](N(C)S(C)(=O)=O)[C@H]2C)c2cnc(Nc3ccnc(N4CC[C@H](O)[C@H](F)C4)n3)cc12 [Compound P41b] = 15
• COCCS(=O)(=O)n1cc(-c2nccc(Nc3cc4c(C(C)C)ccc(N5CC(CS(C)(=O)=O)C5)c4cn3)n2)cn1 [Compound H20] = 43
• CC(C)c1ccc(N2CC(CS(C)(=O)=O)C2)c2cnc(Nc3ccnc(-c4cnn(S(=O)(=O)c5ccccn5)c4)n3)cc12 [Compound H16] = 235
• CC(C)c1ccc(N2CC(CS(C)(=O)=O)C2)c2cnc(Nc3ccnc(-c4cnn(S(=O)(=O)N(C)C)c4)n3)cc12 [Compound H19] = 64
• CC(C)c1ccc(N2C[C@H](CS(C)(=O)=O)[C@H]2C)c2cnc(Nc3ccnc(-c4cnn(S(=O)(=O)N(C)C)c4)n3)cc12 [Compound H28] = 50

Return reported GI50 for target or system Ba/F3-FL-EGFR-L858R (Homo sapiens, UniProt P00533, L858R, cells depend on it), item CCCS(=O)(=O)N(C)[C@H]1CN(c2ccc(C(C)C)c3cc(Nc4ccnc(-c5cnn(S(=O)(=O)C6CC6)c5)n4)ncc23)[C@@H]1C [Compound H33] . 14

Return reported GI50 for target or system Ba/F3-FL-EGFR-L858R (Homo sapiens, UniProt P00533, L858R, cells depend on it), item COC1CCN(c2nccc(Nc3cc4c(C(C)C)ccc(N5CC(NS(=O)(=O)C6COC6)C5)c4cn3)n2)CC1F (stereo not shown) [Compound P37] . 83

Return reported GI50 for target or system Ba/F3-FL-EGFR-L858R (Homo sapiens, UniProt P00533, L858R, cells depend on it), item CCCS(=O)(=O)N[C@H]1CN(c2ccc(C(C)C)c3cc(Nc4ccnc(N5CCC(OC)C(F)C5)n4)ncc23)[C@@H]1C (stereo partly shown) [Compound P32] . 22

Return reported GI50 for target or system Ba/F3-FL-EGFR-L858R (Homo sapiens, UniProt P00533, L858R, cells depend on it), item CC(C)c1ccc(N2CC(CS(C)(=O)=O)C2)c2cnc(Nc3ccnc(-c4cnn(S(=O)(=O)C5CC5)c4)n3)cc12 [Compound H1] . 5.9

Return reported GI50 for target or system Ba/F3-FL-EGFR-L858R (Homo sapiens, UniProt P00533, L858R, cells depend on it), item CC(C)c1ccc(N2C[C@H](NS(C)(=O)=O)[C@H]2C)c2cnc(Nc3ccnc(N4CCC(O)C(F)C4)n3)cc12 (stereo partly shown) [Compound P25] . 42
